Tested on: P388 leukemia ip, CD2F1 mice, survival T/C
Test description: NCI In Vivo Anticancer Drug Screen. Data for tumor model P388 Leukemia (intraperitoneal) in CD2F1 (CDF1) mice
Cond: endpoint: median survival time; dose: 100.0 mg/kg/injection; schedule: Q01DX009 (ip); vehicle: saline with Tween-80; higher = longer survival
Inconclusive results and toxic doses are left out.
Answer each item with its documented T/C.

In: # query: T/C of entry CN(C)CCOC1OCN(C)CC1(C)C (stereo not drawn)
Out: 111 % of control

In: # query: T/C of entry `O=C(O)c1cccnn1`
Out: 90 % of control

In: # query: T/C of entry `Nc1ccc2ccc(O)cc2c1`
Out: 98 % of control

In: # query: T/C of entry `CSc1nnc(N)s1`
Out: 93 % of control

In: # query: T/C of entry `Cc1ncc([N+](=O)[O-])n1CCO`
Out: 118 % of control

In: # query: T/C of entry `CN(C)Cc1c(N=Nc2cccc3c(N=Nc4[nH]c5ccccc5c4CN(C)C)cccc23)[nH]c2ccccc12`
Out: 108 % of control

In: # query: T/C of entry `CCOC(=O)N(O)c1ccc(C(N)=O)cc1`
Out: 97 % of control

In: # query: T/C of entry `O=C1N(c2ccccc2)C(=O)N1c1ccccc1`
Out: 108 % of control

In: # query: T/C of entry CCCC(NC)C(CC)CN (stereo not drawn)
Out: 100 % of control

In: # query: T/C of entry CCCCOC1OCN(CCC)CC1(C)C (stereo not drawn)
Out: 122 % of control

In: # query: T/C of entry `CC(C)(Oc1ccc(C(=O)c2ccc(Cl)cc2)cc1)C(=O)O`
Out: 102 % of control

In: # query: T/C of entry Cc1ccccc1C1SCC(=O)N1c1ccccn1 (stereo not drawn)
Out: 101 % of control

In: # query: T/C of entry O=C1OC2C(O1)C1(c3ccccc3)C(=O)C2(c2ccccc2)C(c2ccccc2)=C1c1ccccc1 (stereo not drawn)
Out: 89 % of control

* * *

Tested on: P388 leukemia ip, CD2F1 mice, survival T/C
Test description: NCI In Vivo Anticancer Drug Screen. Data for tumor model P388 Leukemia (intraperitoneal) in CD2F1 (CDF1) mice
Cond: endpoint: median survival time; dose: 240.0 mg/kg/injection; schedule: Q01DX005 (ip); vehicle: saline with Tween-80; higher = longer survival
Inconclusive results and toxic doses are left out.
Endpoint name: T/C

In: # query: T/C of entry `O=[N+]([O-])c1cnccc1-n1nnc2ccccc21`
Out: 104 % of control

In: # query: T/C of entry C[Si](C)(C)O[C@@H]1CCCC1N (stereo partly specified)
Out: 105 % of control

In: # query: T/C of entry `Cc1ccc(-n2cc(-c3ccc(Cl)cc3)c3c(N)ncnc32)cc1`
Out: 88 % of control

In: # query: T/C of entry `CCOC(=O)c1c(C)c(C(C)=O)c2ccccn12`
Out: 105 % of control

In: # query: T/C of entry `O=S1(=O)Oc2c(Cl)cc(Cl)cc2S(=O)(=O)Oc2c(Cl)cc(Cl)cc21`
Out: 86 % of control

In: # query: T/C of entry COCC(Cl)/C(N)=N\S(=O)(=O)c1c(C)cc(Cl)cc1Cl (stereo unspecified)
Out: 96 % of control

* * *

Test system: P388 leukemia ip, CD2F1 mice, survival T/C
Test description: NCI In Vivo Anticancer Drug Screen. Data for tumor model P388 Leukemia (intraperitoneal) in CD2F1 (CDF1) mice
Cond: endpoint: median survival time; dose: 50.0 mg/kg/injection; schedule: Q04DX003 (ip); vehicle: saline
Inconclusive results and toxic doses are left out. The calls were made as follows: active = survival T/C of 150% or more; inactive = T/C below 125% in these data.
Valid outcomes are listed here; reply with one: active, inactive

In: Just curious, what result did `CC(C)(CN)SCc1ccccc1` get here?
Out: inactive

In: Just curious, what result did `C#CCSc1ncnc2nc[nH]c12` get here?
Out: inactive

In: Just curious, what result did `OCCN1CCN(CC/C=C2/c3ccccc3Sc3ccc(Cl)cc32)CC1` get here?
Out: inactive

In: Just curious, what result did CC(C)NC(C)C(C)c1ccccc1 (stereo not drawn) get here?
Out: inactive

In: Just curious, what result did CC1NC(C(=O)O)Cc2c1[nH]c1ccccc21 (stereo not drawn) get here?
Out: inactive

In: Just curious, what result did `O=P(N1CC1)(N1CC1)N1CC2CCC(CC2)C1` get here?
Out: active

In: Just curious, what result did `CC(C)COCCCN` get here?
Out: inactive

In: Just curious, what result did `C[O][Sn]([O][Sn]([Cl])([c]1ccccc1)[c]1ccccc1)([c]1ccccc1)[c]1ccccc1` get here?
Out: active

* * *

System: P388 leukemia ip, CD2F1 mice, survival T/C
Test description: NCI In Vivo Anticancer Drug Screen. Data for tumor model P388 Leukemia (intraperitoneal) in CD2F1 (CDF1) mice
Cond: endpoint: median survival time; dose: 100.0 mg/kg/injection; schedule: Q04DX002 (ip); vehicle: saline with Tween-80; higher = longer survival
Toxic doses and inconclusive results are not listed.
Answer each item with its documented T/C.

In: # query: T/C of entry `CCCCN(N=O)C(C)=O`
Out: 101 % of control

In: # query: T/C of entry N#CC(C(=O)C(=O)Nc1ccc(Cl)cc1)c1c(Cl)cccc1Cl (centres undefined)
Out: 105 % of control

In: # query: T/C of entry `COc1cc2c(cc1OC)-c1cccc3c1N(CC2)CC3`
Out: 100 % of control

In: # query: T/C of entry CC12CC(CS(=O)C1)c1ccccc1N2 (centres undefined)
Out: 97 % of control

In: # query: T/C of entry NC(=O)C1CCC(c2ccccc2)(c2ccccc2)C1=O (centres undefined)
Out: 99 % of control

In: # query: T/C of entry `COC(=O)c1nc(SC)[nH]c1CC#N`
Out: 108 % of control

In: # query: T/C of entry `Brc1ccc2[nH]c3nc(N/N=C/c4cccnc4)nnc3c2c1`
Out: 93 % of control

In: # query: T/C of entry `Cc1cc(N(C)C)ccc1/C=C/c1ccnc2ccccc12`
Out: 113 % of control

In: # query: T/C of entry O=C1OC(c2ccccc2)c2cccnc21 (centres undefined)
Out: 101 % of control

* * *

Answer each item with its documented T/C.
System: P388 leukemia ip, CD2F1 mice, survival T/C
Test description: NCI In Vivo Anticancer Drug Screen. Data for tumor model P388 Leukemia (intraperitoneal) in CD2F1 (CDF1) mice
Cond: endpoint: median survival time; dose: 60.0 mg/kg/injection; schedule: Q01DX005 (ip); vehicle: Klucel (hydroxypropylcellulose) (HPC); higher = longer survival
Inconclusive results and toxic doses are left out.

In: # query: T/C of entry COc1c(OCC(O)CN2CCOCC2)c2c(C)coc2c2ccoc12 (stereo unspecified)
Out: 100 % of control

In: # query: T/C of entry `CCCCNC=C1C(=O)Nc2ccccc2NC1=O`
Out: 98 % of control

In: # query: T/C of entry `COc1cc(/C=N/n2c(-c3ccccc3)nc3ccccc3c2=O)cc(Br)c1O`
Out: 89 % of control

In: # query: T/C of entry `NC(=S)N=Nc1c(O)n(CCCO)c2ccccc12`
Out: 93 % of control

In: # query: T/C of entry CN1C=C([N+](=O)[O-])C(N2CCOCC2)C1N1CCOCC1 (stereo unspecified)
Out: 96 % of control

In: # query: T/C of entry `[CH3][Sn]([CH3])([N]=C=S)[N]=C=S.c1ccc(-c2nnc(-c3ccccn3)nc2-c2ccccc2)cc1`
Out: 100 % of control

In: # query: T/C of entry O=C(NC1COB(c2ccccc2)OC1c1ccc([N+](=O)[O-])cc1)C(Cl)Cl (stereo unspecified)
Out: 97 % of control

In: # query: T/C of entry `CC(C)(C)n1nc(C2CC2)cc1NC(=O)Nc1ccccc1`
Out: 98 % of control

In: # query: T/C of entry `CN(CN(C)N=Nc1ccc(Br)cc1)CN(C)N=Nc1ccc(Br)cc1`
Out: 100 % of control

In: # query: T/C of entry `O=C1CN=C(c2ccccc2)N(c2ccccc2)N1`
Out: 107 % of control

In: # query: T/C of entry C=Cc1cc(OC)c2c(c1)c(=O)oc1c2cc(OC)c2c(O)ccc(C3OC(C(C)O)C(O)C3O)c21 (stereo unspecified)
Out: 120 % of control

Where these numbers come from: PubChem BioAssay AID330
